System: Crude diglycosidase
Assay remarks: Examination of pH in the conversion into isoflavone aglycons by diglycosidase using soybean materials
Assay type: biochemical, Penicillium multicolor IAM7153
Experimental context: pH5, heat treatment of enzyme no, reaction time 0 h, 55° C.
Experimental: A substrate solution of 450 μL was prepared by suspending 50 mg of each soybean material (roasted soy flour (manufactured by Fuji Shokuryo K.K.), soymilk (manufactured by Gitoh Shokuhin K.K.), defatted soybean (manufactured by Fuji Seiyu K.K.), concentrated soybean protein (manufactured by Fuji Seiyu K.K.)), and adjusting the pH to 2 to 11 with hydrochloric acid or sodium hydroxide. […]
Metric name: Decomposition efficiency of glycitin family in roasted soy flour

INSERT INTO assay_data (compound, measured_result) VALUES
  ('COc1cc2c(=O)c(-c3ccc(O)cc3)coc2cc1O[C@@H]1O[C@H](CO)[C@@H](O)[C@H](O)[C@H]1O [glycitin]', 56.6),
  ('COc1cc2c(=O)c(-c3ccc(O)cc3)coc2cc1O [glycitein]', 8.6),
  ('COc1cc2c(=O)c(-c3ccc(O)cc3)coc2cc1O[C@@H]1O[C@H](COC(C)=O)[C@@H](O)[C@H](O)[C@H]1O [acetylglycitin, 6″-O-acetylglycitin]', 34.8);
